assay.procedure: in vitro
setup.conditions: human, Caco-2, pH 7.4, Papp (AB), Mean, 10 µM, 90 min, no verapamil
value.type: Papp A→B (×10⁻⁶ cm/s)
Kindly provide the numeric value in ×10⁻⁶ cm/s only, without the unit symbol.

Fill in: Papp A→B of CC(C(=O)O)c1cccc(C(=O)c2ccccc2)c1 (stereo not shown) is ___
21.8

====

assay.procedure: Metabolic stability in human liver microsomes
Assay type: in vitro ADME
setup.conditions: both sexes, human, liver microsomes, pH 7.4; Table S6, 1st batch; read-out: Clint
value.type: microsomal CLint at 2 μM

Fill in: microsomal CLint at 2 μM of CC1CN(c2ccc(NC(=O)C34CCCC(c5ccc(OC(F)(F)F)cc5)(C3)C4)cn2)CC(C)O1 (stereo not shown) [Compound 50] is ___
~14 µL/min/mg

====

assay.procedure: in vitro
setup.conditions: human, Caco-2, pH 7.4, Papp (BA), replicate 1, 10 µM, 90 min, no verapamil
value.type: Papp B→A (×10⁻⁶ cm/s)
Kindly provide the numeric value in ×10⁻⁶ cm/s only, without the unit symbol.

Fill in: Papp B→A of CC(C(=O)O)c1cccc(C(=O)c2ccccc2)c1 (stereo not shown) is ___
19.5

====

assay.procedure: in vitro
setup.conditions: human, Caco-2, pH 7.4, Recovery B-A in presence of Verapamil, replicate 1
value.type: recovery at 90 min, 10 µM (%)
Kindly provide the numeric value in % only, without the unit symbol.

Fill in: recovery at 90 min, 10 µM of CC1CN(c2ccc(NC(=O)C34COCC(c5ccc(OC(F)(F)F)cc5)(C3)C4)cn2)CC(C)O1 (stereo not shown) is ___
69

====

assay.procedure: Metabolic stability in human liver microsomes
Format: in vitro ADME
setup.conditions: both sexes, human, liver microsomes, pH 7.4, Table S7, 2nd batch; 15 min; 2 µM
value.type: remaining at […], 2 µM (%)
Kindly provide the numeric value in % only, without the unit symbol.

compound	remaining at […], 2 µM [%]
O=C(O)Cc1ccccc1Nc1c(Cl)cccc1Cl	26

Fill in: remaining at […], 2 µM of CC1CN(c2ccc(NC(=O)C34COCC(c5ccc(OC(F)(F)F)cc5)(C3)C4)cn2)CC(C)O1 (stereo not drawn) is ___
89

Fill in: remaining at […], 2 µM of `Cc1c(C(=O)Nc2ccc(N3C[C@@H](C)O[C@@H](C)C3)nc2)cccc1-c1ccc(OC(F)(F)F)cc1` is ___
94

====

assay.procedure: in vitro
setup.conditions: human, Caco-2, pH 7.4, Papp (AB), replicate 2, 10 µM, 90 min, no verapamil
value.type: Papp A→B at 90 min, 10 µM (×10⁻⁶ cm/s)
Kindly provide the numeric value in ×10⁻⁶ cm/s only, without the unit symbol.

Fill in: Papp A→B at 90 min, 10 µM of `Cc1c(C(=O)Nc2ccc(N3C[C@@H](C)O[C@@H](C)C3)nc2)cccc1-c1ccc(OC(F)(F)F)cc1` is ___
2.7

====

assay.procedure: in vitro
setup.conditions: human, Caco-2, pH 7.4, Recovery B-A, replicate 1
value.type: recovery at 90 min, 10 µM (%)
Kindly provide the numeric value in % only, without the unit symbol.

Fill in: recovery at 90 min, 10 µM of CC1CN(c2ccc(NC(=O)C34COCC(c5ccc(OC(F)(F)F)cc5)(C3)C4)cn2)CC(C)O1 (stereo not shown) [Compound 51] is ___
71
